Values were extracted from paper PMC6151695.

tested_system: human ERα (Homo sapiens, UniProt P03372)
Construct: purchased Invitrogen
method_summary: Estrogen receptor fluorescence polarisation competitive binding assay, ERα
setup_conditions: ratio of RBA values ERα relative to ERβ
reported_property: Selectivity (α/β)
Give bare numbers.

// for each compound in input: emit Selectivity (α/β)
1. CC/C(=C(\c1ccccc1)c1ccc(OCCN(C)C(=O)CCC(=O)Oc2cc(/C=C(/C(=O)OC)c3cc(OC)c(OC)c(OC)c3)ccc2OC)cc1)c1ccccc1 [Compound 16c]
2. CCC(=C(c1ccc(O)cc1)c1ccc(OCCN(C)C(=O)/C(=C/c2cc(OC)c(OC)c(OC)c2)c2ccc(OC)c(O)c2)cc1)c1ccccc1 (mixture of isomers)
3. CC/C(=C(\c1ccc(O)cc1)c1ccc(OCCNC)cc1)c1ccccc1 [Endoxifen]

Response line:
1. 1.29
2. 2.44
3. 2.55

* * *

Tested on: peripheral blood mononuclear cells (PBMCs)
method_summary: Flow cytometry (propidium iodide) in PBMCs of healthy donors
Type: cell-based, human
setup_conditions: 10 µM, 72 h
reported_property: apoptosis / toxic effects in PBMCs (in words)

compound: COc1ccc(/C=C(/C(=O)N(C)CCOc2ccc(C(=C3CCCCCCC3)c3ccc(O)cc3)cc2)c2cc(OC)c(OC)c(OC)c2)cc1O [Compound 13d]
readout_value: lack of toxicity
--
compound: CCC(=C(c1ccc(O)cc1)c1ccc(OCCN(C)C(=O)/C(=C/c2cc(OC)c(OC)c(OC)c2)c2ccc(OC)c(O)c2)cc1)c1ccccc1 (mixture of isomers) [Compound 3i]
readout_value: lack of toxicity
--
compound: COc1ccc(/C=C(/C(=O)N(C)CCOc2ccc(C(=C3CCC(C)CC3)c3ccc(O)cc3)cc2)c2cc(OC)c(OC)c(OC)c2)cc1O (centres unmarked) [Compound 13e]
readout_value: lack of toxicity

* * *

method_summary: HPLC stability study in phosphate buffer
setup_conditions: half-life, pH range 4–9
reported_property: half-life at 14.6 µg/mL

Prompt line: Consider the compound CC/C(=C(\c1ccccc1)c1ccc(OCCN(C)C(=O)CCC(=O)Oc2cc(/C=C(/C(=O)OC)c3cc(OC)c(OC)c(OC)c3)ccc2OC)cc1)c1ccccc1 [Compound 16c] and give its measured half-life at 14.6 µg/mL.
Response line: > 20 h

* * *

Field: Selectivity (α/β). Provide a value for each of the compounds that follow.
tested_system: human ERα (Homo sapiens)
Construct: purchased Invitrogen
Sequence (P03372 1-595): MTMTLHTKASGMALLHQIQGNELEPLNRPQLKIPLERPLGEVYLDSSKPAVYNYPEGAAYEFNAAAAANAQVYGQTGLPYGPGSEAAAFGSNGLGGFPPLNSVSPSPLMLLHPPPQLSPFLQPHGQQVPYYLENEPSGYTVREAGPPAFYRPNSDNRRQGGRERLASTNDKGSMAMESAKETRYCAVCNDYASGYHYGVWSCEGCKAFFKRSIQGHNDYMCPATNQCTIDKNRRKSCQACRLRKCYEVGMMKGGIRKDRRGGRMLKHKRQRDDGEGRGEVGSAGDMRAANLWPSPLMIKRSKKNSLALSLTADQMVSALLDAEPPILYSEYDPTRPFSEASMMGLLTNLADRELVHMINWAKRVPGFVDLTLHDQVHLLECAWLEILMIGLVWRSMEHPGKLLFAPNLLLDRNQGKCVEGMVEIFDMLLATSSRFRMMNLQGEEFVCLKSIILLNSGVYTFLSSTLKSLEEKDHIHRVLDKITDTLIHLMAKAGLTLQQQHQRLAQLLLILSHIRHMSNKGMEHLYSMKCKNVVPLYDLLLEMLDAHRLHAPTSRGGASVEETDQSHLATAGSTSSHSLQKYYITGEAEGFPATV
method_summary: Estrogen receptor fluorescence polarisation competitive binding assay, ERα
setup_conditions: ratio of RBA values ERα relative to ERβ
Give bare numbers.

compound: CNCCOc1ccc(C(=C2CCC(C)CC2)c2ccc(O)cc2)cc1 (stereo not shown) [Compound 11e]
tested_system: human ERα (Homo sapiens)
Selectivity (α/β): 0.02
--
compound: CNCCOc1ccc(C(=C2CCCCCCC2)c2ccc(O)cc2)cc1 [Compound 11d]
tested_system: human ERα (Homo sapiens)
Selectivity (α/β): 0.67
--
compound: COc1ccc(/C=C(/C(=O)N(C)CCOc2ccc(C(=C3CCC(C)CC3)c3ccc(O)cc3)cc2)c2cc(OC)c(OC)c(OC)c2)cc1O (stereo not shown) [Compound 13e]
tested_system: human ERα (Homo sapiens)
Selectivity (α/β): 12.3

Prompt line: Consider the compound CNCCOc1ccc(C(=C2CCCCCC2)c2ccc(O)cc2)cc1 [Compound 11c] and give its measured Selectivity (α/β).
Response line: 0.12
